The reader will find reported TGI values listed item by item below.
tested on: SF-295 CNS; assay: NCI tumour cell line growth inhibition, 384-well format
Residues, ends and D or L forms follow the SMILES beside them. *: point of attachment. Cbz = O=C(OCc1ccccc1)*
attribute_measured: TGI (nM)

> print(dat)
                                   compound  assayed.target  attribute.measured  bound.operator  endpoint.result
1  C=CC(=O)N1CC[C@H](n2nc(C#Cc3cc(OC)cc(OC)c3)c3c(N)ncnc32)C1      SF-295 CNS                 TGI               >           100000
2  C=CC(=O)Nc1cccc(Oc2nc(Nc3ccc(N4CCN(C)CC4)cc3OC)ncc2Cl)c1      SF-295 CNS                 TGI               =             3450
3  CC(C)C[C@@H](C=O)NC(=O)[C@H](CC(C)C)NC(=O)[C@H](CC(C)C)NC(=O)OCc1ccccc1 (Cbz-Leu-Leu-Leu-aldehyde)      SF-295 CNS                 TGI               =              385
4  Cc1ccccc1C(C(=O)NC1CCCCC1)N(C(=O)CNc1ncccc1F)c1cccc(F)c1 (stereo not given)      SF-295 CNS                 TGI               >           100000
5  CN(C)Cc1c(C(=O)NCCOc2ccc(C(=O)NO)cc2)oc2ccccc12      SF-295 CNS                 TGI               =              335

----------
test system: SN12C renal; assay: NCI tumour cell line growth inhibition, 384-well format
attribute_measured: GI50

> print(dat)
                                   molecule  endpoint.result
1  Cc1[nH]nc2ncc(C(=O)N3CCC[C@H]3c3ccc(Cl)cc3)cc12         > 100 µM
2  Cc1sc2c(c1C)C(c1ccc(Cl)cc1)=N[C@@H](CC(=O)NCCCN1CCN(C)CC1)c1nnc(C)n1-2         > 100 µM
3  Cc1ccccc1C(C(=O)NC1CCCCC1)N(C(=O)CNc1ccc(C#N)cc1)c1cccc(F)c1 (centres undefined)          4.43 µM
4  C=CC(=O)N1CC[C@H](n2nc(C#Cc3cc(OC)cc(OC)c3)c3c(N)ncnc32)C1          3.64 µM

----------
test system: SK-MEL-5 melanoma; assay: NCI tumour cell line growth inhibition, 384-well format
Residues, ends and D or L forms follow the SMILES beside them. *: point of attachment. Cbz = O=C(OCc1ccccc1)*
The reader will find reported TGI values listed item by item below.
attribute_measured: TGI

> print(dat)
                                   compound  endpoint.result
1  CC(C)C[C@@H](C=O)NC(=O)[C@H](CC(C)C)NC(=O)[C@H](CC(C)C)NC(=O)OCc1ccccc1 (Cbz-Leu-Leu-Leu-aldehyde)           370 nM
2  C=CC(=O)Nc1cccc(Oc2nc(Nc3ccc(N4CCN(C)CC4)cc3OC)ncc2Cl)c1          2920 nM
3  Cc1[nH]nc2ncc(C(=O)N3CCC[C@H]3c3ccc(Cl)cc3)cc12      > 100000 nM
4  Cc1ccccc1C(C(=O)NC1CCCCC1)N(C(=O)CNc1ncccc1F)c1cccc(F)c1 (centres undefined)      > 100000 nM

All figures here come from PubChem BioAssay (NCI).
